Measured values drawn from ChEMBL document CHEMBL1156608 for this set.

# STUDY TARGET: Galectin-1 (Homo sapiens, UniProt P09382)
# Sequence (P09382 whole entry): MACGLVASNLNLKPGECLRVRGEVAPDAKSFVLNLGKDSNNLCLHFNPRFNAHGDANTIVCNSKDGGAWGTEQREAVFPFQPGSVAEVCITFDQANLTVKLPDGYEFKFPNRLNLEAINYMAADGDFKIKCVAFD
# MEASUREMENT NOTES: Inhibition of recombinant galectin 1 in human O type red blood cells by hemagglutinination assay relative to galactose
QUANTITY NAME: Activity

{"MOLECULE": "OC[C@@H]1O[C@H](SCC#CC#CCS[C@@H]2O[C@H](CO)[C@H](O)[C@H](O)[C@H]2O)[C@@H](O)[C@@H](O)[C@@H]1O", "Activity": 10}
{"MOLECULE": "OC[C@H]1O[C@@H](C/C=C/c2cccc(/C=C/C[C@@H]3O[C@H](CO)[C@H](O)[C@H](O)[C@H]3O)c2)[C@H](O)[C@@H](O)[C@H]1O", "Activity": 10}

A. OC[C@@H]1O[C@H](SCC#Cc2ccc(C#CCS[C@@H]3O[C@H](CO)C(O)[C@H](O)[C@H]3O)cc2)[C@@H](O)[C@H](O)[C@@H]1O (single isomer, unassigned)
B. C#CCS[C@@H]1O[C@H](CO)[C@@H](O[C@@H]2O[C@H](CO)[C@H](O)[C@H](O)[C@H]2O)[C@H](O)[C@H]1O
### Prompt Choose between A and B : whose measured Activity value is numerically larger? Answer by quoting the chosen item's label.
### Response A
(A: 20, B: 1.3)
